# system: human Cav3.2 channels (Homo sapiens)
# Construct: human Cav3.2 channel ORF (Open Reading Frame) gene
# experiment-summary: T-type calcium blocking action: intracellular calcium (Fluo-4 AM fluorescence) in HEK293 cells steadily expressing human Cav3.2 channels
# assay-conditions: HEK293 cells expressing human Cav3.2; KCl-stimulated calcium influx, Fluo-4 fluorescence; Tables 1 to 3
# Method: T-Type Calcium Blocking Action (1) Construction of Cells Steadily Expressing Human Cav3.2 Channels […] The cells steadily expressing human Cav3.2 channels produced by testing method (1) were seeded on a 96-well plate (Dulbecco's modified Eagle medium (DMEM) medium containing 10% fetal bovine serum (FBS) was used as a medium). […] Then, the cells were further allowed to stand at room temperature under light-shielded conditions for 15 minutes and placed in a microplate reader EnVision (PerkinElmer). […]
Recorded pIC50 values for a group of molecules are listed next.
Give only the number. pIC50 is defined as minus log10 of concentration in molar units.

{"molecule": "O=C(Cc1ccc(N2CCC(F)(F)C2)cc1)N[C@@H]1CCN(c2cncc(C(F)(F)F)c2)C1 [Example 176]", "numeric-result": 8.14}
{"molecule": "CC(C)(O)c1ccc(CC(=O)N[C@@H]2CCN(c3cncc(C(F)(F)F)c3)C2)cc1 [Example 131]", "numeric-result": 6.70}
{"molecule": "CC(C)Cc1ccc([C@H](C)C(=O)N[C@@H]2CCN(c3cncc(C(F)(F)F)c3)C2)cc1 [Example 31]", "numeric-result": 6.68}

For the next question, use this molecule.
Name the value of pIC50 reported for Cn1nc(CC(=O)N[C@@H]2CCN(c3cncc(C(F)(F)F)c3)C2)cc1C(F)(F)F [Example 81] when tested on human Cav3.2 channels (Homo sapiens).
6.26

---

# system: human Cav3.2 channels (Homo sapiens, UniProt O95180)
# Construct: human Cav3.2 channel ORF (Open Reading Frame) gene
# Sequence (O95180 whole entry): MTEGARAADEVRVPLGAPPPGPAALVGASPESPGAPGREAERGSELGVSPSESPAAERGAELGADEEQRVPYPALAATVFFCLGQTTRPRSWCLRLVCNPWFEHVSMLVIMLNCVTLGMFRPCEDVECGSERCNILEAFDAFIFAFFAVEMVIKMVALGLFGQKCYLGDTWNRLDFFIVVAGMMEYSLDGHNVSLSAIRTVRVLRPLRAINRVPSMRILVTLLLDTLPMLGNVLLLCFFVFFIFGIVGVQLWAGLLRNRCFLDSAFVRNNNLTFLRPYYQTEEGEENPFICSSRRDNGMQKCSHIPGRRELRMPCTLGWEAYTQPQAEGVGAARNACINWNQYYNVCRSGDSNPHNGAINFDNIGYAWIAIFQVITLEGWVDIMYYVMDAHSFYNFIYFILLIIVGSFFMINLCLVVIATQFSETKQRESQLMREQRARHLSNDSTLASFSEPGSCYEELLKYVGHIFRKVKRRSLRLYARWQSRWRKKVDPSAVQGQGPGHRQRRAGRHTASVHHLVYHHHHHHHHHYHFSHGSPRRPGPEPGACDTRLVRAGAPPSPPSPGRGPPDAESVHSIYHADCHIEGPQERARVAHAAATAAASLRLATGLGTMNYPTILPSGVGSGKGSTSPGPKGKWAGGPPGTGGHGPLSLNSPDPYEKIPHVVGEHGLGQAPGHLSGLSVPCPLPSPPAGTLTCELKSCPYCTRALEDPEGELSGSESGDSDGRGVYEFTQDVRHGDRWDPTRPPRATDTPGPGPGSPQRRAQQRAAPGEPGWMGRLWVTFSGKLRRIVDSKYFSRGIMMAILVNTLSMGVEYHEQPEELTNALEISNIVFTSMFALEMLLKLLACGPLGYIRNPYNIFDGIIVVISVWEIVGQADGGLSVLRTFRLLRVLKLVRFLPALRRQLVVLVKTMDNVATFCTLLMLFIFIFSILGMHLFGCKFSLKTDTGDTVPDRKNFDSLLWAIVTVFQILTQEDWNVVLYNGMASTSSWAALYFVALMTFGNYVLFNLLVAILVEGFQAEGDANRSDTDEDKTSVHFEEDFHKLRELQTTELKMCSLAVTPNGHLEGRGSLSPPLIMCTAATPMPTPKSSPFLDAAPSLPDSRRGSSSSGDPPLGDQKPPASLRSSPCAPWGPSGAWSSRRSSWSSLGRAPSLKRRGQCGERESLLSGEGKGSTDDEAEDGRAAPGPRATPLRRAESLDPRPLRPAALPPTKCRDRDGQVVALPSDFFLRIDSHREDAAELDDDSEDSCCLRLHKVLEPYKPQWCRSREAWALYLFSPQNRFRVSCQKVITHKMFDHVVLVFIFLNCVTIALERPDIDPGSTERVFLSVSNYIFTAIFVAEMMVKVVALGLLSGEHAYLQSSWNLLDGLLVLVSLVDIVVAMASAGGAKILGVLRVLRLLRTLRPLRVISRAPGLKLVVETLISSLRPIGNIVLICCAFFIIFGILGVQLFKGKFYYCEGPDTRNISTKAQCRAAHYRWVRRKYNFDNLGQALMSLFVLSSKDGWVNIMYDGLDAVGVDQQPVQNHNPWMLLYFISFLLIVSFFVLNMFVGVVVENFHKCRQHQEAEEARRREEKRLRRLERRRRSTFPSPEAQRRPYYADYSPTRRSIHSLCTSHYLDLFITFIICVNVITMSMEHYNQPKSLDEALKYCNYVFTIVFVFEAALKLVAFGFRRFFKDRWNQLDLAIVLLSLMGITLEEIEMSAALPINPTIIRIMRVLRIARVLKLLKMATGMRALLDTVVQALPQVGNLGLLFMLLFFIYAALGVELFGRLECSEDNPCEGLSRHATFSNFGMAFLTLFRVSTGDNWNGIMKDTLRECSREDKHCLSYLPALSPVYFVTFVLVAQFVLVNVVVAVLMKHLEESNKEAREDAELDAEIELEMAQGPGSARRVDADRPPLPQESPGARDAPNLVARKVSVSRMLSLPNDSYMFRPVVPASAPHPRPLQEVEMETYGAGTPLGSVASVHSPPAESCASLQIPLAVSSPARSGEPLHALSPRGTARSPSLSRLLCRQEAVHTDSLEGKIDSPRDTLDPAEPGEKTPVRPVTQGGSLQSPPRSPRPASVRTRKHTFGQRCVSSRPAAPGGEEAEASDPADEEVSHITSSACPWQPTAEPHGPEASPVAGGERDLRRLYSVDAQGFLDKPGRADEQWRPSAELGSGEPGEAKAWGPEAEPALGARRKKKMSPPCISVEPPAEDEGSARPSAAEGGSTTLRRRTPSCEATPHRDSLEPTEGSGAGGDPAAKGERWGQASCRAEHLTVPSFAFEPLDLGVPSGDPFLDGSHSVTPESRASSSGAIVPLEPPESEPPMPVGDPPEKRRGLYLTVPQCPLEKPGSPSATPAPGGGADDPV
# experiment-summary: T-type calcium blocking action: intracellular calcium (Fluo-4 AM fluorescence) in HEK293 cells steadily expressing human Cav3.2 channels
# assay-conditions: HEK293 cells expressing human Cav3.2; KCl-stimulated calcium influx, Fluo-4 fluorescence; Tables 1 to 3
# pIC50 values compiled below
Reminder that pIC50 is minus the log10 of a molar concentration.

Please review the following examples before continuing.
{"molecule": "N#Cc1ncc(N2CC[C@@H](NC(=O)Cc3ccc(C4CC4)cc3)C2)cc1C(F)(F)F [Example 12]", "pIC50": 6.55}
{"molecule": "CC(C)c1ccc(CC(=O)N[C@@H]2CCN(c3cnc(C(F)(F)F)nc3)C2)cc1 [Example 3]", "pIC50": 6.07}
{"molecule": "O=C(Cc1ccc(C2CC2)cc1)N[C@@H]1CCCN(c2cncc(C(F)(F)F)c2)C1 [Example 129]", "pIC50": 6.26}

Determine its reported pIC50: COc1cccc(N2CC[C@@H](NC(=O)Cc3ccc(C4CC4)cc3)C2)c1 [Example 175]
6.31

Annotate the molecule O=C(Cc1ccc(C(F)(F)F)cn1)N[C@@H]1CCN(c2cncc(C(F)(F)F)c2)C1 [Example 2] with its measured pIC50.
5.89

Quick one: give measured pIC50 for O=C(N[C@@H]1CCN(c2cncc(C(F)(F)F)c2)C1)[C@@H]1C[C@H]1c1nc2ccccc2o1 [Example 50]
6.17

Read the entry Cn1ncc2cc(CC(=O)N[C@@H]3CCN(c4cncc(C(F)(F)F)c4)C3)ccc21 [Example 142] and write its reported pIC50.
8.03

Quick one: give measured pIC50 for O=C(Cc1ccc(C2CC2)cc1)N[C@H]1CN(c2ccc(C(F)(F)F)nc2)CC12CC2 [Example 7]
7.01

Determine its reported pIC50: O=C(Cc1ccc(C(F)(F)F)cc1)NC1CN(c2cncc(C(F)(F)F)c2)C1 [Example 89]
6.37

For CC(C)c1ccc(CC(=O)N[C@@H]2CCN(c3ccc(C(F)(F)F)nc3)C2)cc1 [Example 113] , write its pIC50.
7.00

Tell me measured pIC50 for CC(C)c1ccc(CC(=O)N[C@@H]2CCN(c3cncc(C(F)(F)F)c3)C2)cc1 [Example 4] please.
7.85

Indicate its recorded pIC50; the molecule in question is O=C(Cc1ccc(C2CC2)cc1)N[C@@H]1CCN(c2nc(C(F)(F)F)cs2)C1 [Example 16]
6.49

Item O=C(N[C@@H]1CCN(c2cncc(C(F)(F)F)c2)C1)C(O)c1ccc(Br)cc1 (stereo partly shown) [Example 25] : provide pIC50
5.70

Tell us which pIC50 value is on record for O=C(N[C@@H]1CCN(c2ccc(C(F)(F)F)nc2)C1)[C@H]1C[C@@H]1c1nc2ccccc2[nH]1 [Example 54]
7.06

State its pIC50: COCC1(NC(=O)Cc2ccc(C3CC3)cc2)CCN(c2cncc(C(F)(F)F)c2)C1 (stereo not shown) [Example 105]
6.62

Retrieve pIC50 measured for O=C(Cc1ccc(N2C3CCC2COC3)cc1)N[C@@H]1CCN(c2cncc(C(F)(F)F)c2)C1 [Example 149] and print it.
7.16
